# assay-text: Volume of distribution at steady state in CL57BL/6J mouse at 0.25 mg/kg, iv measured upto 24 hrs by LCMS/MS analysis
# Type: ADME, organism-based
# condition-details: in vivo, read-out: Vdss
Reported Vd by item:
Please state the figure in L/kg; there is no need to write the unit.

chemical-smiles	recorded-endpoint	observed
CC(C)(C)[C@H](NC(=O)[C@H](Cc1ccncc1)NC(=O)CNC(=O)CC[C@H](NS(=O)(=O)c1ccc(Cl)c(C(F)(F)F)c1)C(=O)O)C(=O)Nc1ccc(C(=O)N2CCN(C(=O)[C@@H](N)CCCN)CC2)cc1	Vd	0.185

--- query ---
Task: Hello, please tell me recorded Vd for this one: CC(C)(C)[C@H](NC(=O)[C@H](Cc1ccncc1)NC(=O)CNC(=O)CC[C@H](NS(=O)(=O)c1ccc(Cl)c(C(F)(F)F)c1)C(=O)O)C(=O)Nc1ccc(C(=O)O)cc1
Result: 2.48

* * *

# assay-text: Fraction unbound in human
# Type: ADME
recorded-endpoint: fraction unbound

Task: Hello, please tell me recorded fraction unbound for this one: CC(C)(C)[C@H](NC(=O)[C@H](Cc1ccncc1)NC(=O)CNC(=O)CC[C@H](NS(=O)(=O)c1ccc(Cl)c(C(F)(F)F)c1)C(=O)O)C(=O)Nc1ccc(C(=O)N2CCC(C(=O)N[C@H](CCCCN)C(=O)N3CC[C@H](N)C3)CC2)cc1
Result: 0.135

* * *

# target-desc: CYP2C8 (Homo sapiens)
# Sequence (P10632 whole entry): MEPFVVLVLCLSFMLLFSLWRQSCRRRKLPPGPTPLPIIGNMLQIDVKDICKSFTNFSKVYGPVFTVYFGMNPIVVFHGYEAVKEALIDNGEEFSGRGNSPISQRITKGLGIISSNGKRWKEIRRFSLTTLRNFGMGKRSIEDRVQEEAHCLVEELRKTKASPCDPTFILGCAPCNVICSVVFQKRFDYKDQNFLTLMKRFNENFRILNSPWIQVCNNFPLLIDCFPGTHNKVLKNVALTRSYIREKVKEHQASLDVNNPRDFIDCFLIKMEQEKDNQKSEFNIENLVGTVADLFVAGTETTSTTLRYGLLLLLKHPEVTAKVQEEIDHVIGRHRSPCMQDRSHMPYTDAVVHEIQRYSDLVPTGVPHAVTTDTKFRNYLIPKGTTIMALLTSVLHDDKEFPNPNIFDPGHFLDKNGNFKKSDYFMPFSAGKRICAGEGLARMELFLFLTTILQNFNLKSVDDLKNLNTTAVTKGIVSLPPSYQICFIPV
# assay-text: Time dependent inhibition of CYP2C8 in human liver microsomes at 10 uM by LC-MS/MS analysis relative to control
# Format: ADME, Microsome
# condition-details: read-out: TDI
recorded-endpoint: inhibition at 10 µM (%)
Please state the figure in %; there is no need to write the unit.

Task: Hello, please tell me recorded inhibition at 10 µM for this one: CC(C)(C)[C@H](NC(=O)[C@H](Cc1ccncc1)NC(=O)CNC(=O)CC[C@H](NS(=O)(=O)c1ccc(Cl)c(C(F)(F)F)c1)C(=O)O)C(=O)Nc1ccc(C(=O)N2CCC(C(=O)N[C@H](CCCCN)C(=O)N3CC[C@H](N)C3)CC2)cc1
Result: 9.1

* * *

# assay-text: Chemical stability of the compound in pH 7.4 aqueous solution assessed as degradation by measuring residual rate incubated measured after 2 weeks at 65 degC by HPLC analysis
# Format: physicochemical
# condition-details: read-out: Stability
recorded-endpoint: remaining at 336 h (%)
Please state the figure in %; there is no need to write the unit.

Task: Hello, please tell me recorded remaining at 336 h for this one: CC(C)(C)[C@H](NC(=O)[C@H](Cc1ccncc1)NC(=O)CNC(=O)CC[C@H](NS(=O)(=O)c1ccc(Cl)c(C(F)(F)F)c1)C(=O)O)C(=O)Nc1ccc(C(=O)N2CCC(C(=O)N[C@H](CCCCN)C(=O)N3CC[C@H](N)C3)CC2)cc1
Result: 99.1

* * *

# target-desc: CYP3A (Homo sapiens, UniProt P08684+P20815+P24462+Q9HB55)
# assay-text: Inhibition of CYP3A in human liver microsomes using testosterone as substrate at 10 uM by LC-MS/MS analysis relative to control
# Format: ADME, Microsome
# condition-details: probe testosterone
recorded-endpoint: inhibition at 10 µM (%)
Please state the figure in %; there is no need to write the unit.

Task: Hello, please tell me recorded inhibition at 10 µM for this one: CC(C)(C)[C@H](NC(=O)[C@H](Cc1ccncc1)NC(=O)CNC(=O)CC[C@H](NS(=O)(=O)c1ccc(Cl)c(C(F)(F)F)c1)C(=O)O)C(=O)Nc1ccc(C(=O)N2CCC(C(=O)N[C@H](CCCCN)C(=O)N3CC[C@H](N)C3)CC2)cc1
Result: 2.5

// provenance: ChEMBL document CHEMBL5537178
